Test system: MKL-1
experiment: qHTS assay to identify novel small-molecules to repurpose for Merkel cell carcinoma treatment (AID 1296009); further: nearly all actives have a fitted effect of over 60% in size
experimental conditions: MCC and control cell lines, CellTiter-Glo viability, 72 h; series mostly up to 46 µM
Source text: MCC is a rare and aggressive neuroendocrine skin cancer with limited treatment options. Approximately 80% of MCCs have the Merkel cell polyomavirus (MCPyV) DNA integrated into the host genome (virus-positive: VP-MCC) and viral oncogenes drive oncogenesis. The remaining MCCs are virus-negative (VN-MCC) and are caused by UV mutagenesis. […] Using cell viability as a readout (CellTiter-Glo assay) we found both overlapping and distinct drugs that can be repurposed for the treatment of VP-MCC and VN-MCC. […]
Records with an inconclusive call do not appear. Activity calls are given as the source filed them. The call rests on the fitted dose curve; in most records, active means well fitted inhibition curve with a large enough effect; inconclusive means small, poorly fitted or top-dose-only effect; inactive means flat fitted curve, though single readings scatter.
Select the correct class. Options are y (active), n (inactive) and nothing else.

-- ask Give the logged outcome of this assay for the following molecule: c1coc(CNc2ncnc3nc[nH]c23)c1
-- reply n

-- ask Give the logged outcome of this assay for the following molecule: CNC(=O)c1ccc(Nc2cc(Nc3ccccc3S(=O)(=O)C(C)C)c3cc[nH]c3n2)nc1
-- reply y

-- ask Give the logged outcome of this assay for the following molecule: C=C[C@@H]1CN2CCC1C[C@H]2[C@H](O)c1ccnc2ccc(OC)cc12 (stereo not given in full)
-- reply n

-- ask Give the logged outcome of this assay for the following molecule: COc1cc2ncnc(Nc3cccc(Br)c3)c2cc1OC
-- reply n

-- ask Give the logged outcome of this assay for the following molecule: C=CC(=O)Nc1ccc2ncnc(Nc3ccc(OCc4cccc(F)c4)c(Cl)c3)c2c1
-- reply y

-- ask Give the logged outcome of this assay for the following molecule: COC(=O)[C@@H]1CC2=CC(=O)CC[C@]2(C)[C@@]23O[C@@H]2C[C@@]2(C)[C@H](CC[C@@]24CCC(=O)O4)[C@@H]13
-- reply n

-- ask Give the logged outcome of this assay for the following molecule: CN[C@@H]1C[C@H]2O[C@@](C)([C@H]1OC)n1c3ccccc3c3c4c(c5c6ccccc6n2c5c31)C(=O)N[C@H]4O
-- reply y

-- ask Give the logged outcome of this assay for the following molecule: C[C@H](O)[C@@H]1C(=O)N2C(C(=O)O)=C(S[C@@H]3CN[C@H](CNS(N)(=O)=O)C3)[C@@H](C)[C@@H]12
-- reply n

-- ask Give the logged outcome of this assay for the following molecule: COc1ccc([C@@H]2CNC(=O)C2)cc1OC1CCCC1
-- reply n

-- ask Give the logged outcome of this assay for the following molecule: Cc1cnc(Nc2ccc(N3CCN(C)CC3)cc2)nc1Nc1cccc(S(=O)(=O)NC(C)(C)C)c1
-- reply y

-- ask Give the logged outcome of this assay for the following molecule: OCc1ccccc1O[C@@H]1O[C@H](CO)[C@H](O)[C@H](O)[C@H]1O
-- reply n

-- ask Give the logged outcome of this assay for the following molecule: COc1cc2c(cc1OC)[C@@H]1C(=O)c3ccc4c(c3O[C@@H]1CO2)C=CC(C)(C)O4
-- reply y

-- ask Give the logged outcome of this assay for the following molecule: COc1cccc2c1C(=O)c1c(O)c3c(c(O)c1C2=O)C[C@@](O)(C(C)=O)C[C@H]3O[C@H]1C[C@H](N)[C@H](O)[C@H](C)O1
-- reply y

-- ask Give the logged outcome of this assay for the following molecule: c1cc(CN2CCCNCCNCCCNCC2)ccc1CN1CCCNCCNCCCNCC1
-- reply n

-- ask Give the logged outcome of this assay for the following molecule: NC1=N[C@H]2[C@H](CS[C@H]2CCCCC(=O)O)N1
-- reply n

-- ask Give the logged outcome of this assay for the following molecule: C[C@H](NC(=O)Cc1cc(F)cc(F)c1)C(=O)N[C@H](C(=O)OC(C)(C)C)c1ccccc1
-- reply n

-- ask Give the logged outcome of this assay for the following molecule: CCOc1cc2ncc(C#N)c(Nc3ccc(OCc4ccccn4)c(Cl)c3)c2cc1NC(=O)C=CCN(C)C
-- reply n

-- ask Give the logged outcome of this assay for the following molecule: Nc1cccc2c1C(=O)N(C1CCC(=O)NC1=O)C2=O (stereo not given)
-- reply n

-- ask Give the logged outcome of this assay for the following molecule: C[C@@H]1CC[C@@]2(OC1)OC1CC3C4CC=C5CC(O)CCC5(C)C4CCC3(C)C1[C@@H]2C (stereo not given in full)
-- reply n

-- ask Give the logged outcome of this assay for the following molecule: Cn1cnc2c(F)c(Nc3ccc(Br)cc3F)c(C(=O)NOCCO)cc21
-- reply n

-- ask Give the logged outcome of this assay for the following molecule: CS(=O)(=O)N1CCc2c(-c3cnc(N)nc3)nc(N3CCOCC3)nc21
-- reply n

-- ask Give the logged outcome of this assay for the following molecule: O=c1ccn([C@@H]2O[C@H](CO)[C@H](O)[C@@H]2F)c(=O)[nH]1
-- reply n

-- ask Give the logged outcome of this assay for the following molecule: CCCCCCCN(CC)CCCC(O)c1ccc(NS(C)(=O)=O)cc1 (stereo not given)
-- reply n

-- ask Give the logged outcome of this assay for the following molecule: CN(CC(=O)N(Cc1ccc(C2CCCCC2)cc1)c1ccc(C(=O)O)c(O)c1)S(=O)(=O)c1c(F)c(F)c(F)c(F)c1F
-- reply y

-- ask Give the logged outcome of this assay for the following molecule: O=C(C[C@@H]1CC=CCCC(=O)O[C@H](c2ccccc2)CNC1=O)NCc1ccc(Cl)cc1
-- reply n

-- ask Give the logged outcome of this assay for the following molecule: C=C(C)[C@@H]1CC[C@]2(C)CC[C@]3(C)[C@H](CC[C@@H]4[C@@]5(C)CC[C@H](O)C(C)(C)[C@H]5CC[C@]43C)[C@@H]12
-- reply n

-- ask Give the logged outcome of this assay for the following molecule: COc1cc(C(C)C)c(Oc2cnc(NC(CO)CO)nc2N)cc1I
-- reply n

-- ask Give the logged outcome of this assay for the following molecule: CC(O)(C#Cc1ccc2c(c1)N(c1nc(N)ncc1Cl)CC2)c1nccs1 (stereo not given)
-- reply n

-- ask Give the logged outcome of this assay for the following molecule: COC(=O)C=CC(=O)OC
-- reply n

-- ask Give the logged outcome of this assay for the following molecule: COc1ccc(CCC(=O)c2c(O)cc(O[C@@H]3O[C@H](CO)[C@@H](O)[C@H](O)[C@@H]3O[C@@H]3O[C@@H](C)[C@H](O)[C@@H](O)[C@@H]3O)cc2O)cc1O
-- reply n

-- ask Give the logged outcome of this assay for the following molecule: O=S(=O)(O)CCSSCCS(=O)(=O)O
-- reply n

-- ask Give the logged outcome of this assay for the following molecule: CC(C)c1cc(C(C)C)c(CC(=O)NS(=O)(=O)Oc2c(C(C)C)cccc2C(C)C)c(C(C)C)c1
-- reply n

-- ask Give the logged outcome of this assay for the following molecule: CCC(C(=O)O)C1CCC(C)C(C(C)C(O)C(C)C(=O)C(CC)C2OC3(C=CC(O)[C@@]4(CC[C@](C)(C5CC[C@@](O)(CC)C(C)O5)O4)O3)C(C)CC2C)O1 (stereo not given in full)
-- reply y

-- ask Give the logged outcome of this assay for the following molecule: COc1cccc2c1C(=O)c1c(O)c3c(c(O)c1C2=O)C[C@@](O)(C(=O)CO)C[C@@H]3O[C@H]1C[C@H](N)[C@H](OC2CCCCO2)[C@H](C)O1 (stereo not given in full)
-- reply y

-- ask Give the logged outcome of this assay for the following molecule: COC1=C(OC)C(=O)C(CC=C(C)CCC=C(C)CCC=C(C)CCC=C(C)CCC=C(C)CCC=C(C)CCC=C(C)CCC=C(C)CCC=C(C)CCC=C(C)C)=C(C)C1=O
-- reply n

Values were extracted from PubChem BioAssay (NCATS).
